Ref: the RNAGym collection of RNA variant scans (doi:10.7554/elife.80360)

B1: HDV Ribozyme (parent)
chain: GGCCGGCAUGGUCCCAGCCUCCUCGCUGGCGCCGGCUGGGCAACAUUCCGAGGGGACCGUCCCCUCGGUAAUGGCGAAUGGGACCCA

# Variants of: B1
# ASSAY NOTES: self-cleavage, relative activity (ratio to wild type); higher = more cleavage; co-transcriptional
MEASURED PARAMETER: self-cleavage
API doc: respond with a numeric literal and nothing else, no unit.

Before answering, review these 6 worked examples.
{"columns": ["MACROMOLECULE SEQUENCE", "NUMERIC READOUT"],
 "data": [
  ["GGGCGGCAUGGUCCCAGCCUCCUCGCUGGCGCCGGCUGGGCAACAUUCCGAGGGGACCGUCGCCUCGGUAAUGGCGAAUGGGACCCA [C3G C62G]", 0.169],
  ["GGCCGGCAUGGUCCCAGCAUCCUCGCUGGCGCCGGCUGGGCAACAUUCCGCGGGGACCGUCCCCUCGGUAAUGGCGAAUGGGACCCA [C19A A51C]", 0.0733],
  ["GGCCGGCAUGGUCCCAGCCUCCUCGCUCGCGCCGGCUGGGCAACAUUCCGAUGGGACCGUCCCCUCGGUAAUGGCGAAUGGGACCCA [G28C G52U]", 0.0831],
  ["GGCCGGCAUGGUCCCAGCCUCCUCGCUGGCGCCGGCUUGGCAACAUUCCGAGGGGACCGUCCCCUCGGAAAUGGCGAAUGGGACCCA [G38U U69A]", 0.256],
  ["GGCCGGCAUGGUCCCAGGCUCCUCGCUGGCGCCGGCUGGGCAACUUUCCGAGGGGACCGUCCCCUCGGUAAUGGCGAAUGGGACCCA [C18G A45U]", 0.217],
  ["GGCCGGCAUGGUCCCAGCCUCCUCGCUGGCGCCUGCUGGCCAACAUUCCGAGGGGACCGUCCCCUCGGUAAUGGCGAAUGGGACCCA [G34U G40C]", 0.0415]
]}

IN: Could you tell me which self-cleavage is on file for GGCCGGCAUGGUCCCAGCCUCCUCGCUGGCGCCGACUGGGCAACAUUCCGAGGGGACCGUCCCCUCGGUAAUGGCGAAUGGGACCCA [G35A] ?
OUT: 0.605

IN: Fill in the blank: the reported self-cleavage of GGCCGGCAUGGUCCCAGCCUCCUCGCUGGCGCCGGCUGGGCAACAUUCCGAGGGGACCGUCCCCUUGGUACUGGCGAAUGGGACCCA [C66U A71C] is ____.
OUT: 0.54

IN: Consider the variant shown here: GGCCGGCAUGCUCCCAGCCUCCUCGCUGGCGCCGGCUGGGCAACAUUCCGAGGGGACCGUCCCCUCGGUAAUGGGGAAUGGGACCCA [G11C C75G] What is its recorded self-cleavage?
OUT: 0.133

IN: Fill blank: measured self-cleavage of the variant GGCCGGCAUGGUCCCAGCCUCCUCGCUGGCGGCGGCUGGGCAACAUUCCGAGGGGACCGUCGCCUCGGUAAUGGCGAAUGGGACCCA [C32G C62G] is ____.
OUT: 0.277

IN: Could you share which self-cleavage value was measured for GGCCGGCAUGGUCCCAGCCUCCUCGCUGGCGCCGGGUGGGCAACAUUCCGAGGGGACCGUCCCCUCGGUAAUGGCGAAUGUGACCCA [C36G G81U] ?
OUT: 0.114
